procedure-details: NCI Yeast Anticancer Drug Screen. Data for the mec2-1 strain (AID 157)
applied-conditions: S. cerevisiae mec2-1 strain, at 50.0 µM
This is part of a sample that, as a whole, favours compounds with a hit. Of some 79,000 tested, about 15% had one in any assay. Calls of active or inactive are those of the source. Rule as the data show it: active = growth inhibition above about 70%; inactive = the rest. Where a SMILES comes first, the peptide text is derived from it.
Please answer using one outcome listed in active, inactive

Below are worked cases with known answers.
C=CCC1(/C(=C\CC)CCC)C(=O)NC(=O)N=C1N (stereo unspecified) :: inactive
Nc1ccc2cccc(O)c2c1 :: inactive
CC(C)CC(NC(=O)C(Cc1ccccc1)NC(=O)CNC(=O)CN)C(=O)O (stereo unspecified) (H-GGFL-OH; configuration not given here) :: inactive
COc1ccc2c(c1)OCC1=C2Oc2ccccc2C1 :: active
C1=NN=C2C=C3CCc4ccccc4C3CC12 (stereo unspecified) :: inactive

Now consider a different compound.
Prompt: // return assay outcome for `Cc1ccc(C)c(NC(=O)Nc2cccc(Cl)c2)c1`
Completion: inactive

====

procedure-details: NCI Yeast Anticancer Drug Screen. Data for the bub3 strain (AID 167)
applied-conditions: S. cerevisiae bub3 mutant strain, at 50.0 µM, stronger effect = higher value
The panel holds about 79,000 compounds, 15% with a hit somewhere; the sample as a whole holds those more often.
readout-kind: growth inhibition (%)
Give the value, in units of %, as a plain number.

Prompt: What does the record list as growth inhibition for `CCOC(=O)c1c(OC)c(-c2ccccc2)c(=O)n2c3ccccc3n(C)c12` ?
Completion: -1.1

Prompt: Param item: COC(=O)/C(=N/O)C(C(=O)C=C(C)C)C(=O)C(=O)Nc1nc2ccc([N+](=O)[O-])cc2s1 (stereo not drawn)
Completion: 5.95

Prompt: Param item: `CC(C)C/C(=N\NC(N)=O)C1=CCCCC1`
Completion: -0.1

Prompt: Param item: `O=Cc1c[nH]c2ccccc12`
Completion: 1.85

Prompt: Param item: CC1CCCC(CCO)CC1 (stereo not drawn)
Completion: 15.7

Prompt: Param item: `CCCCCCCCS(=O)(=O)NC`
Completion: 16.4

Prompt: Param item: CC1CCC2N(C1)CC1C3(O)CC4(O)C(CCC5C(=O)C(O)CCC54C)C3(O)CC(O)C1(O)C2(C)O (stereo not drawn)
Completion: -9.1

Prompt: Param item: `Nc1nc(SCCc2ccccc2)nc2nc3c(c(-c4ccccc4)c12)CCCC3`
Completion: 0.05

Prompt: Param item: `CC1=C(C(=O)NCc2ccccc2)C(c2cccc([N+](=O)[O-])c2)C(C(=O)NCc2ccccc2)=C(C)N1`
Completion: 19.2

Prompt: Param item: `O=C(c1ccccc1)N1OCCCc2ccccc21`
Completion: 13.3

Prompt: Param item: `NC(=O)N/N=C/c1ccccc1N`
Completion: -8.65

Prompt: Param item: `O=C(CCN1CCOCC1)Nc1ccc(F)cc1F`
Completion: -36.5

Prompt: Param item: CCCOCC(O)CNCCNCC(O)COCCC (stereo not drawn)
Completion: -3.65

Prompt: Param item: `CCC(CC)c1ccc2ccccc2c1`
Completion: -6.55

====

procedure-details: NCI Yeast Anticancer Drug Screen. Data for the mlh1 rad18 strain (AID 175)
applied-conditions: S. cerevisiae mlh1 rad18 strain growth inhibition; at 50.0 µM; stronger effect = higher value
Experimental: Growth inhibition of yeast strains with defined genetic alterations is measured as a screen for potential anti-cancer activity. Selected strains with alterations in DNA damage repair or cell cycle control were exposed to compounds and growth inhibition was measured relative to vehicle treated controls. The strain used in this assay is mlh1 rad18
This is part of a sample that, as a whole, favours compounds with a hit. Of some 79,000 tested, about 15% had one in any assay.
readout-kind: growth inhibition (%)
Give the value, in units of %, as a plain number.

CCCCC(CCc1ccccc1)C(=O)NCC (configuration not stated) :: 5.1

Prompt: What does the record list as growth inhibition for `CCc1cccc(C)c1NC(=O)C(=O)CC(=O)CS(=O)(=O)c1ccc(C)cc1` ?
Completion: 12.5

Prompt: Param item: `COC(=O)CNc1cccc([N+](=O)[O-])c1`
Completion: -19.2

Prompt: Param item: `COc1c(O)c2ccccc2c2cc(O)ccc12`
Completion: 10.2

Prompt: Param item: `O=c1[nH]c2cc3[nH]c4ncccc4c(=O)c3cc2[nH]1`
Completion: 21.3

Prompt: Param item: `[N-]=[N+]=Nc1ccccc1-c1ccc([N+](=O)[O-])cc1`
Completion: 29.6

Prompt: Param item: NC(=O)NC1CC1c1ccccc1 (configuration not stated)
Completion: -1.45

====

procedure-details: NCI Yeast Anticancer Drug Screen. Data for the bub3 strain (AID 167)
applied-conditions: S. cerevisiae bub3 mutant strain, at 50.0 µM, stronger effect = higher value
Compounds without any hit were thinned out: in the full panel of roughly 79,000, 15% have a hit. Calls of active or inactive are those of the source. Rule as the data show it: active = growth inhibition above about 70%; inactive = the rest.
readout-kind: growth inhibition

Prompt: What does the record list as growth inhibition for `Nc1ccc(S(=O)(=O)O)cc1N` ?
Completion: 2.95% (inactive)

Prompt: Param item: `Oc1ccc(Cl)cc1/C=N\NC(=S)Nc1ccc2cn[nH]c2c1`
Completion: 20.8% (inactive)

====

procedure-details: NCI Yeast Anticancer Drug Screen. Data for the bub3 strain (AID 167)
applied-conditions: S. cerevisiae bub3 mutant strain, at 50.0 µM, stronger effect = higher value
About 79,000 compounds went through this panel and 15% of them were active in at least one assay; those are over-represented in the sample as a whole.
Reported growth inhibition values for a set of compounds
Give the value, in units of %, as a plain number.

Some entries whose results are on file:
CC(C)(C)CC(C)(C)Nc1ccc(C(N)=O)cc1 :: 7.7
CC(C)(c1ccc([N+](=O)[O-])cc1)c1ccc(N)c([N+](=O)[O-])c1 :: -9.1

Prompt: What does the record list as growth inhibition for Cc1ccc(S(=O)NOCc2ccccc2)cc1 (stereo not drawn) ?
Completion: 11.1

Prompt: Param item: CC(=O)c1ccc(N2C(=O)C3c4[nH]c5ccccc5c4C4CCC(C(C)(C)C)CC4C3C2=O)cc1 (stereo not drawn)
Completion: 16

Prompt: Param item: `O=C(Oc1ccc[nH]c1=O)C1CC1`
Completion: 22.2

Prompt: Param item: `CN(C)CCSCC(=O)N1c2ccccc2Sc2ccccc21`
Completion: 3

====

procedure-details: NCI Yeast Anticancer Drug Screen. Data for the bub3 strain (AID 167)
applied-conditions: S. cerevisiae bub3 mutant strain, at 50.0 µM, stronger effect = higher value
Protocol: Growth inhibition of yeast strains with defined genetic alterations is measured as a screen for potential anti-cancer activity. Selected strains with alterations in DNA damage repair or cell cycle control were exposed to compounds and growth inhibition was measured relative to vehicle treated controls. The strain used in this assay is bub3
The panel holds about 79,000 compounds, 15% with a hit somewhere; the sample as a whole holds those more often.
readout-kind: growth inhibition (%)
Give the value, in units of %, as a plain number.

Some entries whose results are on file:
Nc1ccc2cc(S(=O)(=O)O)cc(O)c2c1 :: 6.85
C=CCOc1cc2c(cc1Cc1ccc3c(c1)OCO3)OCO2 :: 7.5

Prompt: What does the record list as growth inhibition for `Cc1cc(C)c(C(=O)OCCN(C)C)c(C)c1` ?
Completion: 0.5

Prompt: Param item: `O=C(c1ccc(Cl)cc1)N(C(=S)N1CCN(c2ccccn2)CC1)C1CCCCC1`
Completion: -16.6

Prompt: Param item: O=C(O)C1CSC2(CCCN(Cc3ccccc3)C2)N1 (configuration not stated)
Completion: -17.1

Prompt: Param item: O=C1C2C3CC4C5CC(C1C53)C42 (configuration not stated)
Completion: -5.4

Prompt: Param item: COC12NC(=O)NC(=O)C1(c1ccccc1)CC(C)O2 (configuration not stated)
Completion: -24.1

Prompt: Param item: Cc1ccc(C2SCC(=O)N2c2ccc(-c3ccc(-n4c(-c5ccccc5)nc5ccccc5c4=O)cc3)cc2)cc1 (configuration not stated)
Completion: 45.8

Prompt: Param item: `Cc1nc(CC#N)n[nH]1`
Completion: 24.8

====

procedure-details: NCI Yeast Anticancer Drug Screen. Data for the mec2-1 strain (AID 157)
applied-conditions: S. cerevisiae mec2-1 strain, at 50.0 µM, stronger effect = higher value
Experimental: Growth inhibition of yeast strains with defined genetic alterations is measured as a screen for potential anti-cancer activity. Selected strains with alterations in DNA damage repair or cell cycle control were exposed to compounds and growth inhibition was measured relative to vehicle treated controls. The strain used in this assay is mec2-1
This is part of a sample that, as a whole, favours compounds with a hit. Of some 79,000 tested, about 15% had one in any assay.
Reported growth inhibition values for a set of compounds
Give the value, in units of %, as a plain number.

Some entries whose results are on file:
COc1ccc(/C=C2\N=C(c3ccccc3)N(Nc3nnc(NN4C(=O)/C(=C/c5ccc(OC)cc5)N=C4c4ccccc4)c4ccccc34)C2=O)cc1 :: -10.3
CC(=O)OCC1(C)C(O)CCC2(C)C1CCC1CC3CC12CCC3(O)CO (centres undefined) :: -26
Nc1ncnc2c1ncn2C1CCC(COS(N)(=O)=O)C1 (centres undefined) :: 3.65

Prompt: What does the record list as growth inhibition for CC(C)C(O)C[N+](=O)[O-] (centres undefined) ?
Completion: 6.8

Prompt: Param item: `CN(/N=C/c1ccccn1)C1=NCCCCN1`
Completion: 3.15

Prompt: Param item: C(=C(Sc1ccccc1)Sc1ccccc1)C(Sc1ccccc1)c1ccccc1 (centres undefined)
Completion: 21.9

Prompt: Param item: `CC(C)NCc1ccccc1Sc1ccccc1CNC(C)C`
Completion: 5.45

Prompt: Param item: COC(=O)C1C(O)C(C)C(O)C(C)(O)C=C(C)C2=C3C(=C(C)C(=O)c4c(O)c(c(C)c(OC(C)=O)c43)NC(=O)C(C)=C/C=C\C(C)(O)C(O)C(C)C1O)OCO2 (centres undefined)
Completion: 1.65

Prompt: Param item: CC1(C)OC1(C(=O)C=[N+]=[N-])c1ccccc1 (centres undefined)
Completion: -17.8

Prompt: Param item: NC1C(O)C(N)C(O)C(O)C1O (centres undefined)
Completion: 20.4

Prompt: Param item: `O=C(COC(=O)c1ccccc1)c1ccc(-c2ccccc2)cc1`
Completion: 16.3

Prompt: Param item: C=CCOC(=O)C(O)C=C (centres undefined)
Completion: -12.3

Prompt: Param item: `CSc1ccc2c(=O)c(C(=O)O)c[nH]c2c1`
Completion: 15.7

Prompt: Param item: C=C(C)CCC[C@@H](C)C1CCC2(C)[C@@H]3CCC4C(C)(C)[C@@H](O)CC[C@@]45C[C@@]35CC[C@]12C (some centres undefined)
Completion: 0.45

Prompt: Param item: Cc1cn(C2CC(O)C(CO)O2)c(=O)nc1NC1CC1 (centres undefined)
Completion: 3.45
